FYI, the data here is from patent US12351583B2.

Test system: CCRF-HSB-2 cells (human acute lymphoblastic leukemia)
Test: MTT cell proliferation inhibition assay, CCRF-HSB-2 cells
Assay type: cell-based
Settings: MTT assay, cultured 3 days, probit analysis, read-out: Inhibitory concentration against tumor cell lines in vitro IC50, CCRF-HSB-2
metric: IC50 (µM)
Give bare numbers, in µM.

Worked cases, answers included:
stdin: For O=c1[nH]cc(F)c2nc(-c3ccc(Br)cc3)nn12 , what is its reported IC50?
stdout: 31.5

stdin: Record: Cc1c[nH]c(=O)n2nc(-c3ccccc3F)nc12
stdout: 48.8

stdin: Next compound: Cc1c[nH]c(=O)n2nc(-c3ccc([N+](=O)[O-])cc3)nc12
stdout: 71.6

stdin: Same lookup for Cc1c[nH]c(=O)n2nc(-c3ccc(F)cc3)nc12 , please.
stdout: 55.5

stdin: Do the same for Cc1c[nH]c(=O)n2nc(-c3ccccc3)nc12 please
stdout: 48.6

stdin: Here is the next compound: Cc1c[nH]c(=O)n2nc(-c3ccccc3Br)nc12
stdout: 74.5

// switching to the query compound
stdin: I am curious: what IC50 value has been reported for Cc1c[nH]c(=O)n2nc(-c3ccncc3)nc12 ?
stdout: 28.7

###

Test system: CCRF-HSB-2 cells (human acute lymphoblastic leukemia)
Assay: MTT cell proliferation inhibition assay, CCRF-HSB-2 cells
Assay type: cell-based
Details: MTT assay, cultured 3 days, probit analysis, read-out: Inhibitory concentration against tumor cell lines in vitro IC50, CCRF-HSB-2
API: label(entry) gives Condition met if the entry's IC50 is strictly smaller than 60 µM; on equality or larger values it gives Condition not met.

Observe how each entry below is paired with its result.
stdin: Quick check: IC50 of O=c1[nH]cc(F)c2nc(-c3ccc(Cl)c(Cl)c3)nn12 [Compound 9e] under 60 µM?
stdout: Condition met

stdin: Same again, this time with Cc1ccc(-c2nc3c(C)c[nH]c(=O)n3n2)cc1 [Compound 5c]
stdout: Condition not met

stdin: Also Cc1c[nH]c(=O)n2c(-c3ccccc3)nnc12 [Compound 4b] ?
stdout: Condition not met

stdin: Same lookup for Cc1c[nH]c(=O)n2nc(-c3ccc(Cl)c(Cl)c3)nc12 [Compound 5j] , please.
stdout: Condition met

stdin: Also, N#Cc1ccc(-c2nc3c(F)c[nH]c(=O)n3n2)cc1 [Compound 9g] please.
stdout: Condition met

---
stdin: State whether 60 µM exceeds IC50 recorded for Cc1c[nH]c(=O)n2nc(-c3ccc4ccccc4c3)nc12 [Compound 5r] .
stdout: Condition not met

stdin: // query: COc1ccc(-c2nc3c(C)c[nH]c(=O)n3n2)cc1 [Compound 5d]
stdout: Condition not met

###

Please provide measured pIC50 for the entries that follow.
Test system: CCRF-HSB-2 cells (human acute lymphoblastic leukemia)
Experiment: MTT cell proliferation inhibition assay, CCRF-HSB-2 cells
Format: cell-based
Conditions: MTT assay, cultured 3 days, probit analysis, read-out: Inhibitory concentration against tumor cell lines in vitro IC50, CCRF-HSB-2
One number for each entry, as −log10 of the molar value.

Below are worked cases with known answers.
stdin: // map Cc1c[nH]c(=O)n2nc(-c3ccc(Cl)cc3)nc12 to recorded pIC50 (system: CCRF-HSB-2 cells (human acute lymphoblastic leukemia))
stdout: 4.38

stdin: Repeat with Cc1c[nH]c(=O)n2nc(-c3cccnc3)nc12
stdout: 4.23

stdin: For O=c1[nH]cc(F)c2nc(-c3ccccc3)nn12 then?
stdout: 4.65

# evaluate next
stdin: Quick check: pIC50 on CCRF-HSB-2 cells (human acute lymphoblastic leukemia), item CCc1nnc2c(C)c[nH]c(=O)n12 ?
stdout: 4.11
